The values you see were collected from patent US9120771B2.

parameter: melting point (°C)
State the answer as a number, implicitly in °C.

Q. Which melting point is listed for Cl.Clc1cccc(OC(c2ccc(Cl)c(Cl)c2)C2CNC2)c1 (stereo not drawn) ?
A. 169

Q. Requested read-out: melting point. Entry: Cc1ccc(OC(c2ccc(Cl)c(F)c2)C2CNC2)cc1.Cl (stereo not drawn)
A. 173

Q. Param item = Cl.Clc1ccc(C(OC2CCCCC2)C2CNC2)cc1Cl (stereo not drawn) ; retrieve measured melting point.
A. 189.4

Q. melting point lookup needed for Cl.Fc1cc(C(Oc2ccc(Cl)cc2)C2CNC2)ccc1Cl (stereo not drawn) , thanks.
A. 203

Q. What measured melting point goes with Cl.Fc1ccc(C(Oc2ccccc2OC(F)(F)F)C2CNC2)cc1Cl (stereo not drawn) ?
A. 157

Q. Suppose we examine the molecule Cc1ccc(OC(c2ccc(Cl)c(Cl)c2)C2CNC2)cc1.Cl (stereo not drawn) ; what melting point value has been reported?
A. 193

----------
Provide the reported inhibition at 10 µM of each item.
Biological target: UniProt Q01959
Sequence (Q01959 whole entry): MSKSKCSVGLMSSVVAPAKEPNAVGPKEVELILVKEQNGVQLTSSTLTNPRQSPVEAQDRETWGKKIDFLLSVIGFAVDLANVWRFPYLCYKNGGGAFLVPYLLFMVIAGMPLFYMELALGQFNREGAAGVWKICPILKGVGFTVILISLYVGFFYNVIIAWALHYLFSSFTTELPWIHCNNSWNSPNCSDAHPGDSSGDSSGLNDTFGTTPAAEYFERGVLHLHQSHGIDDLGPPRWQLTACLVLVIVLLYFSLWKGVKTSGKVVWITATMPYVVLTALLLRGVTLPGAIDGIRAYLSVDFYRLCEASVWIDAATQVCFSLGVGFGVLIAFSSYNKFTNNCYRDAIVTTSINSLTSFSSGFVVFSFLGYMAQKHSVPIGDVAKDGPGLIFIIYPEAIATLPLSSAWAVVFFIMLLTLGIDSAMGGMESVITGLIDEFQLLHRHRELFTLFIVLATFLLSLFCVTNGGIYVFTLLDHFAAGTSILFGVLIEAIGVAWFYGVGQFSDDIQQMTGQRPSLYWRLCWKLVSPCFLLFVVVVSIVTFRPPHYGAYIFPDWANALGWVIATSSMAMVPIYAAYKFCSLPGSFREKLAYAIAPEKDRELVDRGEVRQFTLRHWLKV
Experiment: hDAT binding assay ([3H]WIN35,428);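 further: displacement of the radioligand from the transporter membranes, incubated 120 min at 4 °C in Tris-HCl buffer with NaCl, pH 7.4, measured by filter-bound radioactivity counting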
Settings: read-out: hDAT binding assay %-inhibition (10 uM)
Record the value in %, omitting the unit from your answer.

Q. Requested read-out: inhibition at 10 µM. Entry: Cc1ccc(OC(c2ccc(Cl)c(Cl)c2)C2CNC2)cc1.Cl (stereo not drawn) [KHG26776, hydrochloride]
A. 95

Q. Quick check: inhibition at 10 µM of Cl.Clc1ccc(C(Oc2ccccc2)C2CNC2)cc1 (stereo not drawn) [KHG26766, hydrochloride] ?
A. 94

Q. Item under review: Cl.Clc1ccc(C(OCc2ccccc2)C2CNC2)cc1 (stereo not drawn) [KHG26769, hydrochloride] . Reported inhibition at 10 µM?
A. 84

Q. Reported inhibition at 10 µM, molecule COC(c1ccc(Cl)cc1)C1CNC1.Cl (stereo not drawn) [KHG26753, hydrochloride] : ____
A. 58

Q. Please give the measured inhibition at 10 µM for this molecule: Cc1ccccc1OC(c1ccc(Cl)c(Cl)c1)C1CNC1.Cl (stereo not drawn) [KHG26774, hydrochloride]
A. 96

Q. Give its inhibition at 10 µM value. Item: Cl.Clc1ccc(C(OCc2ccccc2)C2CNC2)cc1Cl (stereo not drawn) [KHG26770, hydrochloride]
A. 96

Q. Quick one: inhibition at 10 µM of COC(c1ccc(Cl)c(Cl)c1)C1CNC1.Cl (stereo not drawn) [KHG26756, hydrochloride] ?
A. 54

Q. Need inhibition at 10 µM, item Cc1cccc(OC(c2ccc(Cl)c(Cl)c2)C2CNC2)c1.Cl (stereo not drawn) [KHG26775, hydrochloride]
A. 99

Q. # lookup: inhibition at 10 µM of Cl.O=C(OC(c1ccccc1)C1CNC1)c1ccccc1 (stereo not drawn) [KHG26771, hydrochloride]
A. 77

----------
Biological target: human norepinephrine transporter (Homo sapiens (Human), UniProt P23975)
Sequence (P23975 whole entry): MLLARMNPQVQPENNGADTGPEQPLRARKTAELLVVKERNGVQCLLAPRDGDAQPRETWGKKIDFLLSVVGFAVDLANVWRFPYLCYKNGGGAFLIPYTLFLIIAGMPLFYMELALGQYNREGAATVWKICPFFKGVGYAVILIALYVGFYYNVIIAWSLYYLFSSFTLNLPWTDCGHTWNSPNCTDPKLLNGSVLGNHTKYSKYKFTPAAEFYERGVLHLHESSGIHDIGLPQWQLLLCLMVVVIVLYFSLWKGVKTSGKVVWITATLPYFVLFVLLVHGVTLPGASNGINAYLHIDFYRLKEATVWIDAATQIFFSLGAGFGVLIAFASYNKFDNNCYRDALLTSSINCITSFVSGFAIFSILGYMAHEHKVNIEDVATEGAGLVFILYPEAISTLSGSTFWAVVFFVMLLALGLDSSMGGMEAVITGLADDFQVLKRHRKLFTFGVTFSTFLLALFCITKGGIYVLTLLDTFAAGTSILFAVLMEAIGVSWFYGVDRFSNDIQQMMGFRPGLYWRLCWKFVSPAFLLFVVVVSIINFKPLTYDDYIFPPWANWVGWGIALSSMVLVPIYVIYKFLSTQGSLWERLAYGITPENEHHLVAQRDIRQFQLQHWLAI
Experiment: hNET reuptake assay (HEK-hNET, FDSS6000)
Assay type: cell-based
Conditions: HEK-hNET cells; Table 3
pIC50: −log10 of the molar value. Structures can show the parent of a compound that is named as a salt.
Threshold rule: pIC50 greater than or equal to 6 is yes; below that, no.

Q. Answer whether pIC50 of Cc1ccc(OC(c2ccc(Cl)c(Cl)c2)C2CNC2)cc1.Cl (stereo not shown) [KHG26776, hydrochloride] is greater than or equal to 6.
A. yes

Q. Given the entry Clc1ccc(C(Oc2ccccc2)C2CNC2)cc1Cl (stereo not shown) [KHG26767, hydrochloride] , answer whether its pIC50 meets or surpasses 6.
A. yes

Q. Identify whether the reported pIC50 of the following compound is 6 or greater: Cc1cccc(OC(c2ccc(Cl)c(Cl)c2)C2CNC2)c1.Cl (stereo not shown) [KHG26775, hydrochloride]
A. yes

Q. Would you say Cc1ccccc1OC(c1ccc(Cl)c(Cl)c1)C1CNC1.Cl (stereo not shown) [KHG26774, hydrochloride] shows pIC50 at minimum 6?
A. no

Q. Record Cl.O=C(OC(c1ccc(Cl)cc1)C1CNC1)c1ccccc1 (stereo not shown) [KHG26772, hydrochloride] ; criterion: pIC50 no lower than 6. Met?
A. no

Q. Determine whether measured pIC50 meets or exceeds 6 for Cl.Clc1ccc(C(OCc2ccccc2)C2CNC2)cc1 (stereo not shown) [KHG26769, hydrochloride]
A. yes

Q. Evaluate Cl.Clc1ccc(C(Oc2ccccc2)C2CNC2)cc1 (stereo not shown) [KHG26766, hydrochloride] : pIC50 at minimum 6?
A. yes

----------
Task for the reader: assign each of the following molecules its reported melting point.
Report the figure in °C without appending any unit label.

Q. Which melting point is reported for this molecule? Cl.FC(F)(F)Oc1ccc(OC(c2ccc3ccccc3c2)C2CNC2)cc1 (stereo not drawn)
A. 209

Q. Item under review: Cl.Fc1ccc(C(Oc2cccc(OC(F)(F)F)c2)C2CNC2)cc1Cl (stereo not drawn) . Reported melting point?
A. 157

Q. Which value of melting point has been reported for Cc1ccccc1OC(c1ccc(Cl)c(F)c1)C1CNC1.Cl (stereo not drawn) in the records?
A. 205

Q. Bench note: what melting point did Cl.FC(F)(F)Oc1ccc(OC(c2ccc(Cl)c(Cl)c2)C2CNC2)cc1 (stereo not drawn) show?
A. 217

Q. Fill blank: measured melting point of the molecule COC(c1ccc(Cl)c(Cl)c1)C1CNC1.Cl (stereo not drawn) [KHG26756] is ____.
A. 109

Q. Fill in the blank: the reported melting point of Cl.Fc1ccc(C(Oc2ccccc2Cl)C2CNC2)cc1F (stereo not drawn) is ____.
A. 174

Q. Look up melting point: CCCOC(c1ccc(Cl)c(Cl)c1)C1CNC1.Cl (stereo not drawn)
A. 151

Q. Dear colleague, I am looking for the recorded melting point of the following molecule: Cl.FC(F)(F)Oc1cccc(OC(c2ccc3ccccc3c2)C2CNC2)c1 (stereo not drawn)
A. 217

Q. For the molecule Cl.Fc1ccc(OC(c2ccc(F)c(Cl)c2)C2CNC2)cc1F (stereo not drawn) , what melting point is on record?
A. 187

Q. Given the entry Cc1ccccc1OC(c1ccc(Cl)c(Cl)c1)C1CNC1.Cl (stereo not drawn) [KHG26774] , report its measured melting point.
A. 194

Q. Which melting point reading was recorded for the molecule Cl.Fc1ccc(OC(c2ccc3ccccc3c2)C2CNC2)cc1 (stereo not drawn) ?
A. 214

Q. Any idea what melting point was measured for Cl.Clc1ccc(OC(c2ccc3ccccc3c2)C2CNC2)cc1Cl (stereo not drawn) ?
A. 217

Q. Need melting point of Cl.Fc1cc(C(Oc2ccccc2Cl)C2CNC2)ccc1Cl (stereo not drawn) , thanks.
A. 220

Q. State the recorded melting point for this entry: Cl.Clc1ccc(C(OCc2ccccc2)C2CNC2)cc1Cl (stereo not drawn) [KHG26770]
A. 128

Q. What melting point value was documented for this molecule, Cl.c1ccc(OC(c2ccc3ccccc3c2)C2CNC2)cc1 (stereo not drawn) ?
A. 218

Q. Requested read-out: melting point. Entry: Cl.c1ccc(C(Oc2ccc3ccccc3c2)C2CNC2)cc1 (stereo not drawn)
A. 183

Q. Please look up its melting point: Cl.Fc1cccc(OC(c2ccc(F)c(Cl)c2)C2CNC2)c1 (stereo not drawn)
A. 209

Q. # get_value(readout='melting point', item= Cc1cccc(OC(c2ccc(Cl)c(F)c2)C2CNC2)c1.Cl (stereo not drawn) )
A. 203

Q. Name the reported melting point value associated with the molecule Cc1ccc(OC(c2ccc(F)c(F)c2)C2CNC2)cc1.Cl (stereo not drawn)
A. 159

Q. Returns the measured melting point for the input molecule. Input: Cl.Fc1cc(C(Oc2ccccc2OC(F)(F)F)C2CNC2)ccc1Cl (stereo not drawn)
A. 166

Q. What melting point value was documented for this molecule, Cl.Clc1ccccc1OC(c1ccc2ccccc2c1)C1CNC1 (stereo not drawn) ?
A. 207

Q. Query: melting point; subject: Cc1ccccc1OC(c1ccc2ccccc2c1)C1CNC1.Cl (stereo not drawn)
A. 213

Q. I'd like to know its melting point. The molecule in question is Cl.Fc1ccccc1OC(c1ccc(Cl)c(Cl)c1)C1CNC1 (stereo not drawn)
A. 224

Q. Entry Cc1cccc(OC(c2ccc3ccccc3c2)C2CNC2)c1.Cl (stereo not drawn) : reported melting point = ?
A. 210

----------
Would you kindly list melting point for each of these compounds?
All answers are understood in °C, so give the number only.

Q. Bench note: what melting point did Cl.Fc1ccc(OC(c2ccc(Cl)c(F)c2)C2CNC2)cc1F (centres unmarked) show?
A. 216

Q. Look at this compound and give its reported melting point. Cl.Fc1cc(C(Oc2cccc(Cl)c2)C2CNC2)ccc1Cl (centres unmarked)
A. 204

Q. Name the reported melting point value associated with the compound Cl.Clc1ccc(C(OC2CCC2)C2CNC2)cc1Cl (centres unmarked)
A. 166.1

Q. // melting point lookup, key: Cl.Fc1ccc(OC(c2ccc(F)c(F)c2)C2CNC2)cc1 (centres unmarked)
A. 188

Q. Quick one: melting point for Cl.c1ccc(COC(c2ccccc2)C2CNC2)cc1 (centres unmarked) ?
A. 185

Q. Given the compound Cc1ccccc1OC(c1ccc(F)c(F)c1)C1CNC1.Cl (centres unmarked) , what is its reported melting point?
A. 151

Q. // query melting point value for entry Cl.Fc1ccc(C(Oc2ccccc2)C2CNC2)cc1Cl (centres unmarked)
A. 208

Q. I have this compound here, Cl.Fc1ccc(OC(c2ccc(Cl)c(Cl)c2)C2CNC2)cc1F (centres unmarked) , and I need its recorded melting point.
A. 240

Q. Look up melting point for this compound: Cl.Fc1cccc(OC(c2ccc(Cl)c(F)c2)C2CNC2)c1 (centres unmarked)
A. 217

Q. Given Cl.FC(F)(F)Oc1ccccc1OC(c1ccc(Cl)c(Cl)c1)C1CNC1 (centres unmarked) , state its recorded melting point.
A. 225

Q. Reported melting point, compound Cl.Fc1cc(C(Oc2ccc(OC(F)(F)F)cc2)C2CNC2)ccc1Cl (centres unmarked) : ____
A. 151
